molecular target: fRR, fluorescently labelled H14 foldamer RR; test: fluorescence polarisation; direct FP: S100 protein diluted in 50 nM labeled foldamer, 20 mM HEPES pH 7.5, 150 mM NaCl, 1 mM CaCl2, 0.5 mM TCEP, 0.01% Tween20; quadratic fit (ProFit); detection threshold Kd 1 mM
pKd: −log10 of the molar value.
Kindly state pKd for each of the entries shown.

Below are worked cases with known answers.
[
  {
    "Binder": "S100A3 (natural protein) MARPLEQAVAAIVCTFQEYAGRCGDKYKLCQAELKELLQKELATWTPTEFRECDYNKFMSVLDTNKDCEVDFVEYVRSLACLCLYCHEYFKDCPSEPPCSQ",
    "Measured result": "< 3.00"
  },
  {
    "Binder": "S100A5 (natural protein) METPLEKALTTMVTTFHKYSGREGSKLTLSRKELKELIKKELCLGEMKESSIDDLMKSLDKNSDQEIDFKEYSVFLTMLCMAYNDFFLEDNK",
    "Measured result": 4.35
  },
  {
    "Binder": "S100A9 (natural protein) MTCKMSQLERNIETIINTFHQYSVKLGHPDTLNQGEFKELVRKDLQNFLKKENKNEKVIEHIMEDLDTNADKQLSFEEFIMLMARLTWASHEKMHEGDEGPGHHHKPGLGEGTP",
    "Measured result": "< 3.00"
  }
]

S100G (natural protein) MSTKKSPEELKRIFEKYAAKEGDPDQLSKDELKLLIQAEFPSLLKGPNTLDDLFQELDKNGDGEVSFEEFQVLVKKISQ yielded pKd of < 3.00

Where do these numbers come from? They come from paper PMC8991199.
